molecular target: wild-type GT1a NS3/4A protease (UniProt P27958, C1185S, species not given); construct: Ki (nM) GT1a WT NS3/4A Protease; type: biochemical, Hepatitis C virus; details: read-out: Ki (nM) GT1a WT NS3/4A Protease; Table 1
endpoint: Ki (nM)
Enter your answer as a number in nM; do not include the unit.

COc1ccc2nc(C(F)(F)F)c(O[C@@H]3C[C@H]4C(=O)N[C@]5(C(=O)NS(=O)(=O)C6CC6)C[C@H]5/C=C\CCCCC[C@H](NC(=O)OC(C)(C)C)C(=O)N4C3)nc2c1 [Compound 18d] | 13.3
CCc1nc2ccc(OC)cc2nc1O[C@@H]1C[C@H]2C(=O)N[C@]3(C(=O)NS(=O)(=O)C4(C)CC4)C[C@H]3/C=C\CCCCC[C@H](NC(=O)OC(C)(C)C)C(=O)N2C1 [Compound 19a] | 1.82
COc1ccc2nc(C(C)C)c(O[C@@H]3C[C@H]4C(=O)N[C@]5(C(=O)NS(=O)(=O)C6(C)CC6)C[C@H]5/C=C\CCCCC[C@H](NC(=O)OC5CCCC5)C(=O)N4C3)nc2c1 [Compound 23e] | 1.34
COc1ccc2nc(C)c(O[C@@H]3C[C@H]4C(=O)N[C@]5(C(=O)NS(=O)(=O)C6CC6)C[C@H]5/C=C\CCCCC[C@H](NC(=O)OC(C)(C)C)C(=O)N4C3)nc2c1 [Compound 18b] | 3.4

We next turn to a different molecule, shown below.
Exercise: Item under review: CCc1nc2ccc(OC)cc2nc1O[C@@H]1C[C@H]2C(=O)N[C@]3(C(=O)NS(=O)(=O)C4(C)CC4)C[C@H]3/C=C\CCCCC[C@H](NC(=O)OC3CCCC3)C(=O)N2C1 [Compound 23a] . Reported Ki?
Key: 1.37
